target: hBPGM (Homo sapiens); experiment: BPGM synthase assay; type: biochemical; conditions: Table 6; read-out: huBPGM: synthase Enzyme IC50
Sequence (P07738 whole entry): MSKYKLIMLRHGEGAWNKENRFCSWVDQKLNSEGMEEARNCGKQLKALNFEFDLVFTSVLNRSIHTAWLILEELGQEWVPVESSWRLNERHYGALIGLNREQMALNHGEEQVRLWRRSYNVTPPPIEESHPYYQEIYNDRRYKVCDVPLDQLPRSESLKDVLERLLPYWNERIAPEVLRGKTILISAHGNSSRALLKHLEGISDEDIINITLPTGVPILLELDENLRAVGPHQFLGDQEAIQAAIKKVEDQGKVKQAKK
pIC50: −log10 of the molar value.
# if value of pIC50 reaches 7, tag 1 (yes); if it stays below, tag 0 (no)

Consider the following illustrative entries.
compound	target.under.test	discrete.label
COC(=O)NCc1nc(C)c(-c2csc(-c3cnc(O)c(F)c3)n2)s1	hBPGM (Homo sapiens)	0 (no)
COc1c(F)cc(-c2cccc(-c3sc(COc4ncccn4)nc3C)n2)c(F)c1C#N	hBPGM (Homo sapiens)	0 (no)
Cc1nc(COC(C)C(=O)N(C)C)sc1-c1csc(-c2cc(F)c(O)c(F)c2F)n1 (stereo not shown)	hBPGM (Homo sapiens)	0 (no)

# input Has `Cc1ncsc1-c1cccc(-c2cc(F)c3[nH]nnc3c2F)n1` a recorded pIC50 greater than or equal to 7?
# output 0 (no)

# input Has `Cc1nc(C)c(-c2csc(-c3cc(O)c(NS(=O)(=O)c4ccccc4)cc3F)n2)s1` a recorded pIC50 greater than or equal to 7?
# output 0 (no)

# input Has `Cc1nc(CNC(=O)N2CCN(C)CC2)sc1-c1csc(-c2cc(F)c(O)c(F)c2F)n1` a recorded pIC50 greater than or equal to 7?
# output 0 (no)

# input Has `Cc1nc(COc2ncccn2)sc1-c1cccc(-c2ccc3oc(=O)[nH]c3c2)n1` a recorded pIC50 greater than or equal to 7?
# output 0 (no)

# input Has `Cc1nc(CNC(=O)N2CC(O)C2)sc1-c1csc(-c2cc(F)c(O)c(F)c2F)n1` a recorded pIC50 greater than or equal to 7?
# output 0 (no)

# input Has `Cc1nc(COc2cccnn2)sc1-c1csc(-c2cc(F)c3[nH]nnc3c2F)n1` a recorded pIC50 greater than or equal to 7?
# output 1 (yes)

# input Has `Cc1nc(CNC(=O)N(C)C)sc1-c1csc(-c2cc(F)c(O)c(F)c2F)n1` a recorded pIC50 greater than or equal to 7?
# output 0 (no)
